experiment_description: Selectivity of rat recombinant nNOS over mouse recombinant iNOS
Residues, ends and D or L forms follow the SMILES beside them.
Doc: threshold 70 (exclusive). Items with Ratio Ki beneath it return y; others return n.

{"molecule": "CN[C@@H](CCCNC(=N)N[N+](=O)[O-])C(=O)N[C@@H]1CCNC1", "category_label": "n"}

Answer whether the molecule CN[C@@H](CCCNC(=N)N[N+](=O)[O-])C(=O)NC1CCNCC1 has Ratio Ki strictly less than 70
n

Answer whether the molecule N=C(NCCC[C@H](N)C(=O)NC1CCNCC1)N[N+](=O)[O-] has Ratio Ki strictly less than 70
n

Answer whether the molecule N=C(NCCC[C@H](N)C(=O)N[C@@H]1CCNC1)N[N+](=O)[O-] has Ratio Ki strictly less than 70
n

Answer whether the molecule N=C(NCCC[C@H](N)C(=O)N[C@@H]1CCCNC1)N[N+](=O)[O-] has Ratio Ki strictly less than 70
n

Answer whether the molecule CN[C@@H](CCCNC(=N)N[N+](=O)[O-])C(=O)N[C@@H]1CCCNC1 has Ratio Ki strictly less than 70
n

Answer whether the molecule C[C@H](NC(=O)[C@H](CC(N)=O)NC(=O)[C@@H](N)CC(N)=O)C(=O)O (H-Asn-Asn-Ala-OH) has Ratio Ki strictly less than 70
y

Answer whether the molecule N=C(NCCC[C@H](N)C(=O)N[C@H]1CCNC1)N[N+](=O)[O-] has Ratio Ki strictly less than 70
y

Answer whether the molecule CN[C@@H](CCCNC(=N)N[N+](=O)[O-])C(=O)N[C@H]1CN[C@H](C(N)=O)C1 has Ratio Ki strictly less than 70
y
